target: recombinant human ROCK-I (Homo sapiens); assay: biochemical; conditions: IMAP fluorescence polarisation, dose response curve, read-out: plC50 (the source's name)
Sequence (Q13464 whole entry): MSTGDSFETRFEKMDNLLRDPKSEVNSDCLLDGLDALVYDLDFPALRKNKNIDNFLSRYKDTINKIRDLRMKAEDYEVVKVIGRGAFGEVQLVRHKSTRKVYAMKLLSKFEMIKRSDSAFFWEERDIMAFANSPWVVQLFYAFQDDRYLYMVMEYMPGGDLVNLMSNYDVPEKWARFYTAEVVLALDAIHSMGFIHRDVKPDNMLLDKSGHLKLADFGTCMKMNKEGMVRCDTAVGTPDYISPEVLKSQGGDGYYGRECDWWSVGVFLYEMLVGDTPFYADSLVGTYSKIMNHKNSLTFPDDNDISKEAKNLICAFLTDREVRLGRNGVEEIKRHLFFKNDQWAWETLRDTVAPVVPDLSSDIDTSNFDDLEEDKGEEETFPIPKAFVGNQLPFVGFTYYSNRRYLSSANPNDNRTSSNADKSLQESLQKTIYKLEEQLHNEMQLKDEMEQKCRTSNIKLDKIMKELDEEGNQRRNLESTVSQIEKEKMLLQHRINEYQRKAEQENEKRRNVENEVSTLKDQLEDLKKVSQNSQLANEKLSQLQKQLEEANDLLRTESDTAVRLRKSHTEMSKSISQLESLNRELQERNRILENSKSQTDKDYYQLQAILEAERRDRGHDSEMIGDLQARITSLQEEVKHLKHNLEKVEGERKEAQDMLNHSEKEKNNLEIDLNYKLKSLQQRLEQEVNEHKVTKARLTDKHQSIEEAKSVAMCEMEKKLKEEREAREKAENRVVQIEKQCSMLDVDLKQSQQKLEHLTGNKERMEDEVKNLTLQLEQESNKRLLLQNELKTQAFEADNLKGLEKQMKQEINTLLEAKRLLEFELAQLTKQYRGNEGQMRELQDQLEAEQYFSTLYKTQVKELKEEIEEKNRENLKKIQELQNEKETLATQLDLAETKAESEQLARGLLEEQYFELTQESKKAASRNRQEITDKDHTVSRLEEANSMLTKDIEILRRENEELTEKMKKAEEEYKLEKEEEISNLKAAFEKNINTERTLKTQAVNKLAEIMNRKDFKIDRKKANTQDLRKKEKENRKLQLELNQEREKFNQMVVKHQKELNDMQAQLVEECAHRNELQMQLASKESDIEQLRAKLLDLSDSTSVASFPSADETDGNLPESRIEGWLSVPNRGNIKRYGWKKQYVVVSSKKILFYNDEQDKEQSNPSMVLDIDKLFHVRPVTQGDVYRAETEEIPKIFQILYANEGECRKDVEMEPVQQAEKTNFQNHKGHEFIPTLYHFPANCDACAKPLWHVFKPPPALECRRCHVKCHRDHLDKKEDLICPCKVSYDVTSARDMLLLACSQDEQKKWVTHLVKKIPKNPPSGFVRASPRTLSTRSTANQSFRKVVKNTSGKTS
measurement.label: IC50

Ask: Reported IC50 for Nc1nccc2cc(S[C@H]3CC[C@@H](N)CC3)ccc12 [Example 4] : what is it?
Reply: < 316 nM

The reported numbers originate from patent US7893088B2.
